src = patent US20250154173A1

- Test target: GST-RIPK1 (recombinant GST-RIPK1 kinase domain (residues 1-327)) (Homo sapiens)
- Construct: recombinant GST-RIPK1 kinase domain (residues 1-327) enzyme produced from baculovirus-transfected Sf21 cells
- Assay protocol: RIPK1-ADP-Glo Enzymatic Assay
- Condition notes: ten-point titration, top compound concentration of 100000 nM; 25 nM GST-RIPK1, 300 μM ATP, 3 μM dephosphorylated-MBP; 30 min pre-incubation, 150 min reaction
Outcome measure: EC50 (nM)

>>> reported("CCc1nnc(-c2ccc(COC3CC4(C3)OC3CC[C@@H](c5cnccn5)N3C4=O)cc2)o1 (stereo partly drawn) [Example 18.105]")
66

P. N#Cc1cc(OC2CC3(C2)O[C@@H]2CC[C@@H](c4cccc(F)c4F)N2C3=O)ncn1 (single isomer, unassigned) [Example 9.41]
Q. N#Cc1cc(OC2CC3(C2)O[C@@H]2CC[C@@H](c4cc(F)cc(F)c4)N2C3=O)ncc1F (single isomer, unassigned) [Example 17.2]
Prompt line: Hey, which is lower on measured EC50, P or Q ? Reply with the label of the item you choose.
Response line: P
(P: 14 nM, Q: 227 nM)

###

- Test target: GST-RIPK1 (recombinant GST-RIPK1 kinase domain (residues 1-327)) (Homo sapiens, UniProt Q13546)
- Construct: recombinant GST-RIPK1 kinase domain (residues 1-327) enzyme produced from baculovirus-transfected Sf21 cells
- Sequence (Q13546 1-327): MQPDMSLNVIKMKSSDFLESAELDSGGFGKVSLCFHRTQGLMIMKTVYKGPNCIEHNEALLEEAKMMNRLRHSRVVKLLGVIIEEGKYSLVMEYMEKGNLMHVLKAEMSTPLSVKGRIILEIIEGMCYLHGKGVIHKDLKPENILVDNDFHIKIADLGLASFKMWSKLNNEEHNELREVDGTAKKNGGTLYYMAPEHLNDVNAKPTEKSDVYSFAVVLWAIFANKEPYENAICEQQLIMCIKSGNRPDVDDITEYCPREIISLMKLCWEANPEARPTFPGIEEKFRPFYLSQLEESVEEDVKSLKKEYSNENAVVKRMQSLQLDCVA
- Assay protocol: RIPK1-ADP-Glo Enzymatic Assay
- Condition notes: ten-point titration, top compound concentration of 100000 nM; 25 nM GST-RIPK1, 300 μM ATP, 3 μM dephosphorylated-MBP; 30 min pre-incubation, 150 min reaction
Outcome measure: EC50 (nM)

>>> reported("O=C1N2C(CC[C@H]2c2cnccn2)OC12CC(OCc1cnn(-c3ccccc3)c1)C2 (stereo partly shown)")
52
>>> reported("O=C1N2C(CC[C@H]2c2cnccn2)OC12CC(OCc1cnc(N3CCOCC3)nc1)C2 (stereo partly shown)")
310

P. O=C1N2[C@@H](CC[C@H]2c2cc(F)cc(F)c2)O[C@]12C[C@H](Oc1nccc3ncnn13)C2
Q. O=C1N2[C@@H](CC[C@H]2c2cnccn2)O[C@]12C[C@@H](OCc1ccc3scnc3c1)C2
R. COc1ccc(C#N)nc1COC1CC2(C1)OC1CC[C@@H](c3cnccn3)N1C2=O (stereo partly shown)
S. N#CCCc1ccc(COC2CC3(C2)OC2CC[C@@H](c4cnccn4)N2C3=O)cc1 (stereo partly shown) [Example 18.95]
Prompt line: Provide the items ranked by increasing EC50. Answer by writing out the labels in the requested order.
Response line: Q, P, S, R
